System: RIOK1;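 note: KINOMEscan kinase panel screen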
Settings: concentration: 1 μM, replicates: in singlicate; n = 1
Reported values of %Inh for individual entries
Note: unit % is implicit; provide only the numeric part.

Known %Inh results, listed for orientation:
Please give the measured %Inh for this compound: NCCC(NC(=O)c1cc(Br)c(-c2ccnc3[nH]ccc23)s1)c1ccccc1.O=C(O)C(F)(F)F.O=C(O)C(F)(F)F (centres unmarked)
100

Try Cc1ccc(O)cc1Nc1ccnc2ccc(C(C)(C)C)cc12 next.
15

Others:
Please give the measured %Inh for this compound: CCn1cnc2c(NCc3ccccc3)ncnc21
0

Try Nc1ncc(-c2cn[nH]c2)c2scc(-c3ccc4c(c3)CCN4C(=O)Cc3ccccc3)c12 next.
75

Try Nc1cccc(-c2ccc3c(N)n[nH]c3c2)c1 next.
93.9

Try COc1cc(Nc2ccnc3cc(-c4ccncc4)ccc23)cc(OC)c1OC.Cl next.
39

Try Cc1ccc(NC(=O)c2ccc(Cl)c(Cl)c2)cc1-c1ccc(C(=O)Nc2ccncc2)cc1 next.
50
